# assayText: Effective permeability from apical to basolateral side in human Caco2 cells at 50 uM after 15 to 90 mins by HPLC analysis in presence of sodium azide
# Type: ADME, cell-based
# measurementParameters: Caco-2, with sodium azide, read-out: Peff
parameterMeasured: Papp A→B at 50 µM (×10⁻⁶ cm/s)
Use ×10⁻⁶ cm/s as the unit, but write only the number.

Request: # get_value(readout='Papp A→B at 50 µM', item= CC[C@@]1(O)C(=O)OCc2c1cc1n(c2=O)Cc2cc3c4c(ccc3nc2-1)OCOC4 )
Result: 8.05

---

# assayText: Efflux ratio of effective permeability from basolateral to apical side over apical to basolateral side in human Caco2 cells at 10 to 50 uM after 15 to 90 mins by HPLC analysis
# Assay type: ADME, cell-based
# measurementParameters: Caco-2
parameterMeasured: efflux ratio at up to 50 µM

Request: # get_value(readout='efflux ratio at up to 50 µM', item= CC[C@@]1(O)C(=O)OCc2c1cc1n(c2=O)Cc2cc3c(CN(C)C)c(O)ccc3nc2-1.Cl [TOPOTECAN HYDROCHLORIDE] )
Result: > 1

---

# Tested on: HeLa
# assayText: Cytotoxicity against human HeLa cells after 24 hrs by MTT assay
# Assay type: functional, cell-based
parameterMeasured: pIC50
FYI, pIC50 means -log10 of a concentration in mol per litre.

{"compound": "CC[C@@]1(O)C(=O)OCc2c1cc1n(c2=O)Cc2cc3c([N+](=O)[O-])cccc3nc2-1", "pIC50": 6.46}

Request: # get_value(readout='pIC50', item= CC[C@@]1(O)C(=O)OCc2c1cc1n(c2=O)Cc2cc3ccccc3nc2-1 )
Result: 6.38

Request: # get_value(readout='pIC50', item= CC[C@@]1(O)C(=O)OCc2c1cc1n(c2=O)Cc2cc3c4c(ccc3nc2-1)OCOC4 )
Result: 6.46

Request: # get_value(readout='pIC50', item= CC[C@@]1(O)C(=O)OCc2c1cc1n(c2=O)Cc2cc3c(CN(C)C)c(O)ccc3nc2-1.Cl [TOPOTECAN HYDROCHLORIDE] )
Result: 6.42

---

# Test system: MDA-MB-231
# assayText: Cytotoxicity against human MDA-MB-231 cells after 24 hrs by MTT assay
# Type: functional, cell-based
# measurementParameters: MDA-MB-231, 24 h
Entries and their IC50

// known answers, use as guide
{"compound": "CC[C@@]1(O)C(=O)OCc2c1cc1n(c2=O)Cc2cc3ccccc3nc2-1 [CAMPTOTHECIN]", "IC50": "342 nM"}
{"compound": "CC[C@@]1(O)C(=O)OCc2c1cc1n(c2=O)Cc2cc3c(CN(C)C)c(O)ccc3nc2-1.Cl [TOPOTECAN HYDROCHLORIDE]", "IC50": "473 nM"}
{"compound": "CC[C@@]1(O)C(=O)OCc2c1cc1n(c2=O)Cc2cc3c([N+](=O)[O-])cccc3nc2-1 [RUBITECAN]", "IC50": "479 nM"}

Here is another compound to look at.
Request: # get_value(readout='IC50', item= CC[C@@]1(O)C(=O)OCc2c1cc1n(c2=O)Cc2cc3c4c(ccc3nc2-1)OCOC4 )
Result: 476 nM

---

# Test system: Small intestine
# assayText: Effective permeability in Wistar rat small intestine assessed as absorption rate coefficient at 50 uM measured after 5 mins in every 5 min interval up to 30 mins
# Format: ADME, tissue-based
parameterMeasured: Ka (h⁻¹)
Use h⁻¹ as the unit, but write only the number.

// known answers, use as guide
{"compound": "CC[C@@]1(O)C(=O)OCc2c1cc1n(c2=O)Cc2cc3c4c(ccc3nc2-1)OCOC4", "Ka / h⁻¹": 3.78}
{"compound": "CC[C@@]1(O)C(=O)OCc2c1cc1n(c2=O)Cc2cc3ccccc3nc2-1", "Ka / h⁻¹": 3.02}
{"compound": "COCCc1ccc(OCC(O)CNC(C)C)cc1 (centres undefined)", "Ka / h⁻¹": 2.3}

Here is another compound to look at.
Request: Entry CC[C@@]1(O)C(=O)OCc2c1cc1n(c2=O)Cc2cc3c(CN(C)C)c(O)ccc3nc2-1.Cl [TOPOTECAN HYDROCHLORIDE] , system Small intestine: what Ka was measured?
Result: 2.25

All figures here come from ChEMBL document CHEMBL3351736.
